Origin of the recorded values: paper PMC6906086

# TEST SYSTEM: Lsr2BD T112A (Mycobacterium tuberculosis H37Rv, UniProt P9WIP7 66-112, T112A)
# ASSAY NAME: fluorescence anisotropy; pH 7.5; 4 nM DNA
# RUN CONDITIONS: protein: recombinant; label: 5' Alexa Fluor 488; blunt
pKd: −log10 of the molar value.
PROPERTY MEASURED: pKd

1) AT-rich 14-mer (dsDNA) DNA 1: CGCGCATATATGCG DNA 2: CGCATATATGCGCG ... 7.70
